# assayProtocol: in vitro
# Type: cell-based
# settings: human
assayEndpoint: viability at 48 h, 10 µM (%)
Numbers only; they are read as %.

Tell me viability at 48 h, 10 µM reported for COC(=O)c1[nH]c2ccccc2c1/C=C1\SC(=S)N(CC(=O)O)C1=O 91

###

# System: Bacillus cereus (clinical isolate)
# assayProtocol: Antibacterial microdilution (MIC/MBC)
# Type: cell-based
# settings: Bacillus cereus; B.c. (B. cereus)
Consider the following molecules and their measured MBC readings.

Previously resolved entries follow.
| molecule | targetEntity | assayEndpoint | measured |
| --- | --- | --- | --- |
| COC(=O)c1[nH]c2ccccc2c1/C=C1\SC(=S)N(Cc2ccco2)C1=O | Bacillus cereus (clinical isolate) | MBC | 60 µg/mL |
| CC1(C)S[C@@H]2[C@H](NC(=O)[C@H](N)c3ccccc3)C(=O)N2[C@H]1C(=O)O [Ampicillin, reference compound] | Bacillus cereus (clinical isolate) | MBC | 25 µg/mL |
| COC(=O)c1[nH]c2ccccc2c1/C=C1\SC(=S)N(CCCCCC(=O)O)C1=O | Bacillus cereus (clinical isolate) | MBC | 30 µg/mL |
| COC(=O)c1[nH]c2ccccc2c1/C=C1\SC(=S)N(c2ccc(C(=O)O)cc2)C1=O | Bacillus cereus (clinical isolate) | MBC | 30 µg/mL |
| COC(=O)c1[nH]c2ccccc2c1/C=C1\SC(=S)N(C(C(=O)O)C(C)C)C1=O (centres unmarked) | Bacillus cereus (clinical isolate) | MBC | 60 µg/mL |

# return MBC for COC(=O)c1[nH]c2ccccc2c1/C=C1\SC(=S)N(CC(=O)O)C1=O , test system: Bacillus cereus (clinical isolate) 15 µg/mL

System Bacillus cereus (clinical isolate). Read-out MBC. Item COC(=O)c1[nH]c2ccccc2c1/C=C1\SC(=S)N(c2cccc(O)c2)C1=O . Report value. 30 µg/mL

Recall the reported MBC of COC(=O)c1[nH]c2ccc(F)cc2c1/C=C1\SC(=S)N(N2CCOCC2)C1=O on Bacillus cereus (clinical isolate) and write it down. 30 µg/mL
